meta.source: patent US4732977A

Protocol notes: Blood levels in mice after intramuscular administration
Measurement context: mouse, blood, im, 20 mg/kg
Reported property: AUC

Some entries whose results are on file:
Smiles representation: C[C@@H](O)[C@H]1C(=O)N2C(C(=O)[O-])=C(SCc3n(C)nc[n+]3C)C[C@H]12
AUC: 15.1 µg·h/mL

Smiles representation: C[C@@H](O)[C@H]1C(=O)N2C(C(=O)[O-])=C(SCc3n[n+](C)nn3C)C[C@H]12
AUC: 15.6 µg·h/mL

Dear colleague, could you please provide AUC for the compounds listed below?
1. C[C@@H](O)[C@H]1C(=O)N2C(C(=O)[O-])=C(SCc3ccc[n+](C)c3)C[C@H]12
2. C[C@@H](O)[C@H]1C(=O)N2C(C(=O)[O-])=C(SCc3cn(C)n[n+]3CC(=O)O)C[C@H]12

1: 6.9 µg·h/mL; 2: 3.4 µg·h/mL

* * *

Protocol notes: Blood levels in mice after intramuscular administration;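 note: compounds dissolved in 0.1 M phosphate buffer at pH 7, data from one experiment using four mice for each compound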
Measurement context: mouse, blood, im, 20 mg/kg
For each record, write down the corresponding half-life.
Answers are plain numbers, in min.

Smiles representation: C[C@@H](O)[C@H]1C(=O)N2C(C(=O)[O-])=C(SCc3scc[n+]3C)C[C@H]12
half-life [min]: 11
--
Smiles representation: C[C@@H](O)[C@H]1C(=O)N2C(C(=O)[O-])=C(SCc3cn(CC(=O)O)n[n+]3C)C[C@H]12
half-life [min]: 6
--
Smiles representation: C[C@@H](O)[C@H]1C(=O)N2C(C(=O)[O-])=C(SCCc3cc[n+](C)cc3)C[C@H]12
half-life [min]: 9

Quick request: half-life for each listed item, please.
1. C[C@@H](O)[C@H]1C(=O)N2C(C(=O)[O-])=C(SCc3n(C)cc[n+]3C)C[C@H]12
2. CCC[n+]1ccc(CSC2=C(C(=O)[O-])N3C(=O)[C@H]([C@@H](C)O)[C@H]3C2)cc1
3. Cc1scc(CSC2=C(C(=O)[O-])N3C(=O)[C@H]([C@@H](C)O)[C@H]3C2)[n+]1C

1. 12
2. 9
3. 11

Requested field: half-life. Item: Cc1sc(CSC2=C(C(=O)[O-])N3C(=O)[C@H]([C@@H](C)O)[C@H]3C2)c(C)[n+]1C 11
